# Tested on: CEM-MTX^R5P cells
# METHOD NOTES: Antifolate growth inhibition assay (XTT), MTX-resistant subline
# Assay type: cell-based, human
# TEST SETTINGS: Homo sapiens, 72 h; CEM-MTX^R5P; 3 days incubation, XTT; read-out: IC50 growth inhibition
# Method: Tissue Culture: The human T-cell lymphocytic leukemia lines CCRF-CEM and Molt-4 as well as their antifolate-resistant sublines CEM-MTX^R5P, CEM-MTX^R10, CEM-7OH MTX and Molt-4-7OH MTX were maintained in RPMI-1640 medium (GIBCO) containing 2.3 μM folic acid supplemented with 10% fetal bovine serum, 2 mM glutamine, 100 units/ml penicillin G and 100 μg/ml streptomycin sulfate (Biological Industries, Beth-Haemek, Israel). […]
EXPERIMENTAL READOUT: IC50 (nM)
Dear colleague, please return just the value in nM, with no unit written.

Ask: // lookup IC50 for CN(Cc1cnc2nc(N)nc(N)c2n1)c1ccc(C(=O)N[C@@H](CCC(=O)O)C(=O)O)cc1 [MTX, methotrexate]
Result: 23.1

Data provenance: patent US20110229892A1
